Tested on: Streptococcus pneumoniae 1175
Format: cell-based
Details: S. pneumoniae 1175 (mefA); microtiter broth dilution
Property measured: MIC S. pneumo. 1175 (µg/mL)

{"Compound": "CCC1OC(=O)C(C)C(=O)C(C)C(OC2OC(C)CC(N(C)C)C2O)C(C)(OC)CC(C)C(=O)C(C)C2N(CC3CCN(C(=O)c4cc5ccccn5n4)C3)C(=O)OC12C (centres unmarked) [11.16]", "Censoring sign": "=", "Readout value": 0.5}
{"Compound": "CCC1OC(=O)C(C)C(=O)C(C)C(OC2OC(C)CC(N(C)C)C2O)C(C)(OC)CC(C)C(=O)C(C)C2N(CC3CCN(Cc4cccc5cccnc45)C3)C(=O)OC12C (centres unmarked) [11.12]", "Censoring sign": "<", "Readout value": 0.06}
{"Compound": "CCC1OC(=O)C(C)C(=O)C(C)C(OC2OC(C)CC(N(C)C)C2O)C(C)(OC)CC(C)C(=O)C(C)C2N(CC3CCCN3C(=O)c3ccc4cccnc4c3)C(=O)OC12C (centres unmarked) [12.12]", "Censoring sign": "=", "Readout value": 1}
{"Compound": "CCC1OC(=O)C(C)C(=O)C(C)C(OC2OC(C)CC(N(C)C)C2O)C(C)(OC)CC(C)C(=O)C(C)C2N(CC3CCN(Cc4c[nH]c(-c5ccccc5)n4)C3)C(=O)OC12C (centres unmarked) [13.08]", "Censoring sign": "=", "Readout value": 0.5}
{"Compound": "CCC1OC(=O)C(C)C(=O)C(C)C(OC2OC(C)CC(N(C)C)C2O)C(C)(OC)CC(C)C(=O)C(C)C2N(CC3CCCN3Cc3cccc(OC)n3)C(=O)OC12C (centres unmarked) [12.01]", "Censoring sign": "=", "Readout value": 1}

----------
MIC S. pneumo. 1095 overview
Test system: Streptococcus pneumoniae 1095
Assay type: cell-based
Details: S. pneumoniae 1095 (ermB); microtiter broth dilution
Property measured: MIC S. pneumo. 1095

{"Compound": "CCC1OC(=O)C(C)C(=O)C(C)C(OC2OC(C)CC(N(C)C)C2O)C(C)(OC)CC(C)C(=O)C(C)C2N(CC3CCCN3Cc3ccno3)C(=O)OC12C (stereo not shown) [12.04]", "Readout value": "4 µg/mL"}
{"Compound": "CC[C@H]1OC(=O)[C@H](C)C(=O)[C@H](C)[C@@H](O[C@@H]2O[C@H](C)C[C@H](N(C)C)[C@H]2O)[C@](C)(OC)C[C@@H](C)C(=O)[C@H](C)[C@H]2N(CC3(O)CN(Cc4ccc5nccnc5c4)C3)C(=O)O[C@]12C", "Readout value": "0.12 µg/mL"}
{"Compound": "CCC1OC(=O)C(C)C(=O)C(C)C(OC2OC(C)CC(N(C)C)C2O)C(C)(OC)CC(C)C(=O)C(C)C2N(CC3CCCN3C(=O)c3nc4ccncc4[nH]3)C(=O)OC12C (stereo not shown)", "Readout value": "<0.06 µg/mL"}
{"Compound": "CCC1OC(=O)C(C)C(=O)C(C)C(OC2OC(C)CC(N(C)C)C2O)C(C)(OC)CC(C)C(=O)C(C)C2N(C3CCN(S(=O)(=O)c4cccc5cnccc45)C3)C(=O)OC12C (stereo not shown)", "Readout value": "4 µg/mL"}
{"Compound": "CCC1OC(=O)C(C)C(=O)C(C)C(OC2OC(C)CC(N(C)C)C2O)C(C)(OC)CC(C)C(=O)C(C)C2N(CC3C4CN(Cc5cccnc5)CC43)C(=O)OC12C (stereo not shown)", "Readout value": "3.12 µg/mL"}
{"Compound": "CC[C@H]1OC(=O)[C@H](C)C(=O)[C@H](C)[C@@H](O[C@@H]2O[C@H](C)C[C@H](N(C)C)[C@H]2O)[C@](C)(OC)C[C@@H](C)C(=O)[C@H](C)[C@H]2N(CC3(O)CN(Cc4ccc(-c5ncccn5)cc4)C3)C(=O)O[C@]12C", "Readout value": "64 µg/mL"}
{"Compound": "CCC1OC(=O)C(C)C(=O)C(C)C(OC2OC(C)CC(N(C)C)C2O)C(C)(OC)CC(C)C(=O)C(C)C2N(CC3CCCN3C(=O)c3cccc4ncoc34)C(=O)OC12C (stereo not shown)", "Readout value": "<0.06 µg/mL"}
{"Compound": "CCC1OC(=O)C(C)C(=O)C(C)C(OC2OC(C)CC(N(C)C)C2O)C(C)(OC)CC(C)C(=O)C(C)C2N(CC3CCCN3S(=O)(=O)c3cccc4cccnc34)C(=O)OC12C (stereo not shown)", "Readout value": "0.12 µg/mL"}
{"Compound": "CCC1OC(=O)C(C)C(=O)C(C)C(OC2OC(C)CC(N(C)C)C2O)C(C)(OC)CC(C)C(=O)C(C)C2N(CC3CCCN3C(=O)c3ccc4ccccc4n3)C(=O)OC12C (stereo not shown)", "Readout value": "<0.06 µg/mL"}
{"Compound": "CCC1OC(=O)C(C)C(=O)C(C)C(OC2OC(C)CC(N(C)C)C2O)C(C)(OC)CC(C)C(=O)C(C)C2N(CC3CCN(C(=O)c4ccc5ncccc5c4)C3)C(=O)OC12C (stereo not shown) [13.12]", "Readout value": ">64.00 µg/mL"}

Every entry's value here was drawn from patent US7462600B2.
